- measured on: Axl (Homo sapiens)
- Construct: endogenous in cells; host or cells: HeLa cells
- Sequence (P30530 26-894): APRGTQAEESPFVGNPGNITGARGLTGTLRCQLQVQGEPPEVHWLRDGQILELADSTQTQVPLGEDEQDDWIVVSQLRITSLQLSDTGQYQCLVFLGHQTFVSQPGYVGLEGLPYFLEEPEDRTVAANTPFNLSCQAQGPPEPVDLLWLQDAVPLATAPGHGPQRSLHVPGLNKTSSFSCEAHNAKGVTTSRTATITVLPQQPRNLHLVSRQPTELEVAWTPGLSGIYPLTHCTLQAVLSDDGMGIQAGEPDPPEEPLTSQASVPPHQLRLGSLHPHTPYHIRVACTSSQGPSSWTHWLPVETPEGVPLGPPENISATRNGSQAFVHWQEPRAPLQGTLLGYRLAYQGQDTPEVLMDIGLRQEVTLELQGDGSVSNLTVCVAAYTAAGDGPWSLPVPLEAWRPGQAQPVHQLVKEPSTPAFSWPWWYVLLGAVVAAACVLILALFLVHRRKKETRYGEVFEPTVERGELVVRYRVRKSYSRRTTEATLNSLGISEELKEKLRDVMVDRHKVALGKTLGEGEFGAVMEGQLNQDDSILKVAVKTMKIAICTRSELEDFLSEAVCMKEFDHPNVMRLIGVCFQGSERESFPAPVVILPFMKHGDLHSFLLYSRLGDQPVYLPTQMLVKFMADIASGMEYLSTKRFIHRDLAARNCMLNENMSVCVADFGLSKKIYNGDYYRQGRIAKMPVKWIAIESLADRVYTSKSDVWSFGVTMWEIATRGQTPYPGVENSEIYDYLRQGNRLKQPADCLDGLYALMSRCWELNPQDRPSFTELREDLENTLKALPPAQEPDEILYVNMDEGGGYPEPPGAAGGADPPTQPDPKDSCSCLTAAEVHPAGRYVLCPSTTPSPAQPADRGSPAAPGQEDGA
- method description: Phospho-Akt In-Cell Western Assay (inhibition of Axl activity after Axl-antibody cross-linking)
- Type: cell-based
- conditions: inhibition of Axl activity; Table 1, compounds of formula (Ia); read-out: IC50
pIC50: −log10 of the molar value.
Answer each item with its documented pIC50.

Task: Need pIC50 of CCN(CC)C1CCN(c2ccc(Nc3nc(N)n(-c4cc5c(nn4)-c4ccccc4CCC5)n3)cn2)C1 (stereo not shown) [Compound 133] , thanks.
Output: > 6.00

Task: If you can, please state the reported pIC50 value of Nc1nc(Nc2cnc(N3CCC(N4CCCC4)CC3)nc2)nn1-c1cc2c(nn1)-c1ccccc1CCC2 [Compound 147] .
Output: > 6.00

Task: Please report the recorded pIC50 for CCN(CC)CC1CCCN1c1ccc(Nc2nc(N)n(-c3cc4c(nn3)-c3ccccc3CCC4)n2)cn1 (stereo not shown) [Compound 130] .
Output: 5.00 to 6.00

Task: Look up pIC50: Nc1nc(Nc2ccc3c(c2)CCC(N2CC[C@H](F)C2)CC3)nn1-c1cc2c(nn1)-c1ccccc1CCC2 (stereo partly shown) [Compound 217]
Output: > 6.00

Task: Return reported pIC50; argument: Nc1nc(Nc2ccc3c(c2)CCC(NC2CCCC2)CC3)nn1-c1cc2c(nn1)-c1ccccc1CCC2 (stereo not shown) [Compound 186]
Output: > 6.00

Task: I am curious: what pIC50 value has been reported for Nc1nc(Nc2ccc3c(c2)CCC(N2CC[C@@H](O)C2)CC3)nn1-c1cc2c(nn1)-c1ccccc1CCC2 (stereo partly shown) [Compound 219] ?
Output: > 6.00

Task: So what does the record say about pIC50 for Nc1nc(Nc2ccc(/C=C/CN3CCC(N4CCCCC4)CC3)nc2)nn1-c1cc2c(nn1)-c1ccccc1CCC2 [Compound 145] ?
Output: > 6.00

Task: Give the measured pIC50 of C[C@H]1CCCN1C1CCc2ccc(Nc3nc(N)n(-c4cc5c(nn4)-c4ccccc4CCC5)n3)cc2CC1 (stereo partly shown) [Compound 218] .
Output: > 6.00

Task: I am curious: what pIC50 value has been reported for Nc1nc(Nc2ccc(N3CCC(N4CCCC4)CC3)c(F)c2)nn1-c1cc2c(nn1)-c1ccccc1OC21CCCC1 [Compound 176] ?
Output: 5.00 to 6.00

Task: Would you mind telling me what pIC50 value was observed for CN(C)CCNC1CCc2ccc(Nc3nc(N)n(-c4cc5c(nn4)-c4ccccc4CCC5)n3)cc2CC1 (stereo not shown) [Compound 235] ?
Output: > 6.00

Task: I am curious: what pIC50 value has been reported for Nc1nc(Nc2cnc3c(c2)CN(C2CCCC2)CC3)nn1-c1cc2c(nn1)-c1ccccc1CCC2 [Compound 190] ?
Output: > 6.00

Task: So what's the measured pIC50 for this one? CCN(CC)CCN(C)C1CCc2ccc(Nc3nc(N)n(-c4cc5c(nn4)-c4ccccc4CCC5)n3)cc2CC1 (stereo not shown) [Compound 231]
Output: > 6.00

Task: Recorded pIC50 for CN(C)CCN1CCN(C(=O)c2cc3cc(Nc4nc(N)n(-c5cc6c(nn5)-c5ccccc5SCC6)n4)ccc3s2)CC1 [Compound 131] , please?
Output: 5.00 to 6.00
